# Test system: Cotton (Gossypium indicum)
# ASSAY_DETAILS: Upland foliar application test, crop injury cotton
# Type: in vivo
# COND: foliar application at stage of 2-3 leaves, 50 g ai/a, emulsion, 40th day after spray
# Procedure: Resin-made 1/1000-are pots were filled with the soil of an upland field. After they were fertilized, cotton and soybean were seeded and 3 cm soil covering was applied. […] The degree of damages of each test plant and the degree of injury to each crop were determined by measuring fresh weight in each group and indicated by % calculated according to the following formula. […]
MEASURE: Crop injury Cotton (Gossypium indicum)
Kindly format the answer as number then unit.

// Crop injury Cotton (Gossypium indicum) lookup, molecule = CCOC(OCC)c1ccccc1Oc1nc(OC)cc(OC)n1 [Comp. Comp'd D, reference compound] , result: 35%

// Crop injury Cotton (Gossypium indicum) lookup, molecule = COc1cc(OC)nc(Oc2ccccc2C=O)n1 [Comp. Comp'd B, reference compound] , result: 100%

// Crop injury Cotton (Gossypium indicum) lookup, molecule = CCCCCCCOC(OCCCCCCC)c1ccccc1Oc1nc(OC)cc(OC)n1 [Compound No. 6] , result: 0%

// Crop injury Cotton (Gossypium indicum) lookup, molecule = COc1cc(OC)nc(Oc2c(Cl)cccc2C(OC)OC)n1 [Comp. Comp'd E, reference compound] , result: 30%

// Crop injury Cotton (Gossypium indicum) lookup, molecule = CCCCCCOC(OCCCCCC)c1ccccc1Oc1nc(OC)cc(OC)n1 [Compound No. 5] , result: 0%

###

# Tested on: common lambsquarters
# ASSAY_DETAILS: Upland foliar application test, common lambsquarters
# Assay type: in vivo
# COND: Chenopodium album, 960 h; foliar application at stage of 2-3 leaves, 50 g ai/a, emulsion, 40th day after spray; read-out: Herbicidal effects Common lambquarters
Entries and their pest or weed control at 5000 g/ha
Give the number; % is assumed, so skip it.

Consider the following illustrative entries.
COC(=O)c1ccccc1Oc1nc(OC)cc(OC)n1 [Comp. Comp'd A, reference compound] ... 100
COc1cc(OC)nc(Oc2ccccc2C=O)n1 [Comp. Comp'd B, reference compound] ... 80
CCCOC(OCCC)c1ccccc1Oc1nc(OC)cc(OC)n1 ... 100
COc1cc(OC)nc(Oc2ccccc2C(OC)OC)n1 [Comp. Comp'd C, reference compound] ... 90

// pest or weed control at 5000 g/ha lookup, compound = CCCCOC(OCCCC)c1ccccc1Oc1nc(OC)cc(OC)n1 , result: 100

###

Entries and their Crop injury Cotton (Gossypium indicum)
# System: Cotton (Gossypium indicum)
# ASSAY_DETAILS: Upland foliar application test, crop injury cotton
# Type: in vivo
# COND: foliar application at stage of 2-3 leaves, 50 g ai/a, emulsion, 40th day after spray
Give the number; % is assumed, so skip it.

// Crop injury Cotton (Gossypium indicum) lookup, compound = CCCCCOC(OCCCCC)c1ccccc1Oc1nc(OC)cc(OC)n1 , result: 0

// Crop injury Cotton (Gossypium indicum) lookup, compound = COC(=O)c1ccccc1Oc1nc(OC)cc(OC)n1 [Comp. Comp'd A, reference compound] , result: 100

// Crop injury Cotton (Gossypium indicum) lookup, compound = COc1cc(OC)nc(Oc2ccccc2C(OC)OC)n1 [Comp. Comp'd C, reference compound] , result: 50

###

# Test system: common lambsquarters
# ASSAY_DETAILS: Upland foliar application test, common lambsquarters
# Format: in vivo
# COND: Chenopodium album, 960 h; foliar application at stage of 2-3 leaves, 50 g ai/a, emulsion, 40th day after spray; read-out: Herbicidal effects Common lambquarters
Entries and their pest or weed control at 5000 g/ha
Kindly format the answer as number then unit.

// pest or weed control at 5000 g/ha lookup, compound = CCOC(OCC)c1ccccc1Oc1nc(OC)cc(OC)n1 [Comp. Comp'd D, reference compound] , result: 90%

// pest or weed control at 5000 g/ha lookup, compound = CCCCCCOC(OCCCCCC)c1ccccc1Oc1nc(OC)cc(OC)n1 , result: 100%

// pest or weed control at 5000 g/ha lookup, compound = COc1cc(OC)nc(Oc2c(Cl)cccc2C(OC)OC)n1 [Comp. Comp'd E, reference compound] , result: 65%

// pest or weed control at 5000 g/ha lookup, compound = CCCCCOC(OCCCCC)c1ccccc1Oc1nc(OC)cc(OC)n1 , result: 100%

// pest or weed control at 5000 g/ha lookup, compound = CCCCCCCCOC(OCCCCCCCC)c1ccccc1Oc1nc(OC)cc(OC)n1 , result: 85%

// pest or weed control at 5000 g/ha lookup, compound = COc1cc(OC)nc(Oc2ccccc2C(OC(C)C)OC(C)C)n1 , result: 80%

// pest or weed control at 5000 g/ha lookup, compound = CCCCCCCOC(OCCCCCCC)c1ccccc1Oc1nc(OC)cc(OC)n1 , result: 90%
